# Test: qHTS Assay for Lipid Storage Modulators (AID 1519); also: % is scaled to controls: 0 for no effect and ±100 for the full control effect
# Assay context: Drosophila S3 cells, BODIPY lipid droplet/cell ratio, laser cytometry; at 57.5 µM (top of the series); cells loaded with oleic acid
Inconclusive results are not listed.
Measure name: activity change, negative = inhibition (%)
Return type: number; implicit unit %.

Task: Name the recorded activity change, negative = inhibition for "COc1ccccc1CN1CC[C@@]2(CCCN(C(C)=O)C2)C1" .
Output: 0.807

Task: Item: "COc1ccc(-n2c(=O)c(-c3cccs3)nc3cnc(OC)nc32)cc1"
Output: 3.59

Task: Item: "COCC(=O)N1CCC[C@@]2(CCN(C(=O)Nc3ccc(OC)cc3)C2)C1"
Output: 0.357

Task: Item: "Cn1cccc1C(=O)N1CCC2(CCN(C(=O)Nc3cccc(F)c3)CC2)CC1"
Output: 6.54

Task: Item: "CN(C)c1ncc2ncc(=O)n(CCC#N)c2n1"
Output: 2.4

Task: Item: "c1ccc(-c2ccc(N3CC4(CCNCC4)C3)cc2)cc1"
Output: -2.41

Task: Item: "COCCn1c(=O)c(C)nc2cnc(N3CCN(C)CC3)nc21"
Output: 2.08

Task: Item: "N#Cc1cccc(-c2nc3cnc(N4CCOCC4)nc3n(C[C@H]3CCCO3)c2=O)c1"
Output: 4.04

Task: Item: "Cc1nc2cncnc2n(C2CC2)c1=O"
Output: 9.2

Task: Item: "COc1ccc(CNc2ncnc3ccc(-c4cccc(C#N)c4)cc23)c(OC)c1"
Output: -0.414

Task: Item: "CN1CCN(c2ncc3nc(-c4cc(F)cc(F)c4)c(=O)n(C4CC4)c3n2)CC1"
Output: 1.65

Data provenance is PubChem BioAssay (NCATS).
